PARAMETER MEASURED: melting point

- COMPOUND: "O=C1NC(=O)C(Cc2cc(=O)n(Cc3ccc(Cl)cc3)c3ccccc23)S1 (centres unmarked) [Example 14]"
  melting point: "142.1 to 143.7 °C"
- COMPOUND: "O=C1NC(=S)SC1Cc1cccc2c1CCC(=O)N2Cc1ccc(Br)cc1 (centres unmarked) [Example 47]"
  melting point: "191.3 to 192.1 °C"
- COMPOUND: "Cl.O=C1NC(=S)SC1Cc1cccc2c1CCC(=O)N2Cc1ccc(Cl)nc1 (centres unmarked)"
  melting point: "70 to 80 °C"
- COMPOUND: "CC(=O)N1CCC(CCN2C(=O)CCc3c(CC4SC(=O)NC4=O)cccc32)CC1 (centres unmarked) [Example 614]"
  melting point: "209.5 to 211 °C"

For this compound ( COc1ccc(C=C2SC(=O)NC2=O)c2ccc(=O)n(C)c12 [Example 9] ), measured melting point is ≥ 300 °C
